Assay: yeast display, Sf9 membrane polyspecificity reagent, FACS + sequencing; frameworks hold sequencing errors

| Macromolecule Sequence | polyreactivity (PSR sort gate) |
| --- | --- |
| QVQLVESGGGLVQAGGSLRLSCAASGRTFRSNAMGGTTQAPGKERQLVAGITKSGGNTYYADSVKGRFTISRDNAKNTVYLQMTSLKPEDTAVYYCATRYYPLVNYLGYDYWGQGTQVTVSW | low polyreactivity |
| QVQLVESGGGLVQAGGRLRLSCAASGIIFASNAMGWYCQAPGKERELVAAISRSGGRTYYADSVKGRFTISRDNAKNTVYLQMNSLKPEDTAVYYCAILARSGTLPYYYWGQGTQVNVSS | high polyreactivity |
| QVQLVESGGGLVQAGGSLRLSCAASGLTFIRYAMGWYRQAPGKQRELVAAISTSGGRTYYADSVKGRFTISRDNAKNNVYLQMNILTPEDTAVYYCNAYWRQGYYPEYYYWGQGTQVTVSS | high polyreactivity |
| QVQLVESGGGLVQAGGSLRLSCAASGSTFYKYAMGWYRQAPGKERELVASISRSGGSTSYADSVKGRFTISRDNAKNTVYLQMNSLKPEDTEVYYCAATWRQHPGSMGYWGQGTQVTVSS | high polyreactivity |
| QVQLVESGGGLVQAGGSLRLSCAASGSSFPYNTMGWYRQAPGKERELVAAISSGASTNYADSVKGRFTISRDNAKNTVYLQMNSLKPEDTAVYYCAAKYNANWDFDYWGQGTQVTVSS | low polyreactivity |
| QDQLVESGGGLVPAAGSLRLSCASSGFSFRRNAMGCYRQAPGKEREFVAGITSGGSTYYADSVKGRFTISRDNAKNTVYLLLNSLKPEDTAVYFCAATYRRRYGYWGQGTQVTVSS | high polyreactivity |
| QVQLVESGGGLVQAGGSLRLSCAASGFIFRYYAMGWYRQAPGKERELVAAINRGGGTNYADSVKGRFTISRDNAKNTVYLQMNSLKPEDTAVYYCAAVIRTVRERYGYWGQGTQVTVSS | high polyreactivity |
| QVQLVESGGGLVQAGGSLRLSCAASGFTISLNTMGWYRQAPGKERELVAAINSGDSTYADSVKGRFTISRDNAKNTGYFQMNSLKPEDTAVYYCNADPDWWYPYFYWGQGTQVTVSS | low polyreactivity |
| QVQLVESGGGLVQAGGSLRLSCAASGITFVHYAMGWYRQAPGKEREFVAAITKGGGSTSYADSVKGRFTISRDNAKNTVYLQMNSLKPEDTAVYYCAATYYAYGFSISYYYWGQGTQVTVSS | high polyreactivity |
| QVQLVESGGGLVQAGGSLRLRCAASGSTFYWNAMGWYRQAPGKERELVATITYSGGSTYYADSVKGRFTISRDNAKNTVYLQMNSLKPEDTAVYYCATGGLTWHYTYRGYYWGQGTQVTVSS | low polyreactivity |
| QVQHEESGGGLVQAGGSLRLSCAASGSIIRYYPMGWYRQATGKQRELVAAISRDDSRTYYADSVRGRFTISLDNAKNTVYLQMNSLKPEDTAVYYCAADSSRYTRYLYYYWGQGTQVTVSS | high polyreactivity |
